What follows is literature data on IC50 for Histone deacetylase 1 (Homo sapiens).

Consider the reported IC50 for these molecules:
CCc1ncc2c(n1)CN(C(=O)Nc1nc(-c3ccc(F)cc3)ccc1N)C2; 500 to 5000 nM
COCc1ccc2c(n1)CN(C(=O)Nc1nc(-c3ccc(F)cc3F)ccc1N)C2; 100 to 500 nM
CCc1ncc2c(n1)CN(C(=O)Nc1nc(-c3ccc(F)cc3F)ccc1N)C2; 100 to 500 nM

Here is the next item to consider.
For the molecule "O=C(/C=C/c1ccccc1OC1CCN(C(=O)c2ccccc2)CC1)NO" , what IC50 is on record?
1000 to 10000 nM

* * *

What follows is literature data on pIC50 for Histone deacetylase 1 (Homo sapiens, UniProt Q13547).
pIC50: −log10 of the molar value.

CN(C)Cc1ccc(/C=C/C(=O)NO)cc1; < 4.30

List reported pIC50 for each of these compounds:
1. O=C(NO)c1ccc(Cn2ccc(C3(c4ccc(F)cc4)OCCO3)cc2=O)cc1
2. Nc1ccc(-c2cccs2)cc1NC(=O)c1ccc2nc(N3CCNCC3)ccc2c1
3. CCC(=O)CCCCC[C@H](NC(=O)C1CCN(C)CC1)c1nnc(-c2cc3ccccc3nc2OC)o1

["6.70 to 7.30", "7.22 to 7.30", "> 7.00"]

List reported pIC50 for each of these compounds:
1. CCCCn1nc(C)c(CCN2CCC[C@H]2c2ccc(/C=C/C(=O)NO)cc2)c1C
2. CC(C)(F)CN1CCC(Cn2c(-c3ccncc3)c(Cc3ccc(C(=O)NO)cc3)c3ccccc32)CC1
3. CC1(C)C(=O)N(Cc2ccc(-c3nnc(C(F)F)o3)cn2)C(=O)c2ccc(Br)cc21
4. Cc1nn(-c2ccccc2)c(C)c1CCN1CCC[C@H]1c1ccc(/C=C/C(=O)NO)cc1
5. CCN(CC)S(=O)(=O)c1cccc(-c2nnc(Sc3ccc(C(=O)NO)cc3)n2N)c1
6. COCc1cc2c(cn1)CN(C(=O)Nc1nc(-c3ccccc3F)ccc1N)C2
7. CCC(=O)CCCCC[C@H](NC(=O)CCN(C)C)c1ncc(-c2cc3ccccc3n(C)c2=O)o1
8. CN1C(=O)Cc2cc(C(=O)Nc3cc(-c4ccc(O)cc4)ccc3N)ccc21

[8.77, 5.30, "< 5.00", 8.70, 6.31, "6.30 to 7.00", "> 7.00", "7.52 to 7.60"]

* * *

pIC50: −log10 of the molar value.
What follows is literature data on pIC50 for Histone deacetylase 1 (Homo sapiens, UniProt Q13547).

CC1(C)C(=O)N(Cc2ccc(-c3nnc(C(F)F)o3)cn2)C(=O)N1c1ccc(-c2ccncc2)cc1; < 5.00
CC1(C)C(=O)N(Cc2ccc(-c3nnc(C(F)F)o3)cn2)C(=O)c2ccc(-c3ccoc3)cc21; < 5.00
CN1CCN(c2ccc(C(=O)Nc3cc(-c4ccoc4)ccc3N)nc2)CC1; > 8.00
CN1CCN(c2cnc(C(=O)Nc3cc(-c4ccco4)ccc3N)s2)CC1; > 8.00
CC(C)(C)c1[nH]c2ncccc2c1CCN1CCC[C@H]1c1ccc(/C=C/C(=O)NO)cc1; 8.57

List reported pIC50 for each of these compounds:
1. CCN1CCN(c2ccc3c(c2)C2(CCC2)C(=O)N(Cc2ccc(-c4nnc(C(F)F)o4)cn2)C3=O)CC1
2. Cc1nn(C)c(C)c1CCN1CCC[C@H]1c1ccc(/C=C/C(=O)NO)cc1
3. O=C(NO)c1ccc(Cn2ccc3c(-c4ccncc4)ccnc32)cc1
4. Cc1ccc(-c2ccc(N)c(NC(=O)c3ccc(N4CCNCC4)cn3)c2)cc1
5. Nc1ccc(-c2cccnc2)cc1NC(=O)c1cnc(N2CCNCC2)s1
6. CCC(=O)CCCCC[C@@H](NC(=O)C1CN(C)C1)c1ncc(-c2cc3ccccc3nc2OC)o1

< 5.00
8.74
6.33
7.70 to 8.00
6.30 to 8.00
> 7.00

* * *

What follows is literature data on IC50 for Histone deacetylase 1 (Homo sapiens).

CCC(=O)CCCCC[C@H](NC(=O)C1CCN(C)CC1)c1ncc(-c2cccc3c2OCCO3)o1; < 100 nM
Nc1ccc(-c2ccc(F)cc2)cc1NC(=O)c1ccc(N2CCNCC2)s1; < 10 nM

Here is the next item to consider.
For the compound "Cn1c(=O)n(Cc2ccc(-c3nnc(C(F)F)o3)cn2)c(=O)c2cc(Br)ccc21" , what IC50 is on record?
> 10000 nM

* * *

pIC50: −log10 of the molar value.
What follows is literature data on pIC50 for Histone deacetylase 1 (Homo sapiens).

Consider the reported pIC50 for these molecules:
Cc1ccc(S(=O)(=O)N[C@@H](Cc2ccccc2)C(=O)Nc2cccc(C3O[C@H](CN4CCC(O)(c5ccc(Cl)cc5)CC4)[C@H](C)[C@H](c4ccc(CO)cc4)O3)c2)cc1 (stereo partly shown); < 4.30
CCC(=O)CCCCC[C@H](NC(=O)CC1CN(C)C1)c1ncc(-c2cc3ccccc3nc2OC)o1; > 7.00
Nc1ccc(-c2cc(F)cc(F)c2)cc1NC(=O)c1ccc(N2CCNCC2)nc1; < 6.30
Nc1ccc(-c2ccccc2)cc1NC(=O)c1cnc(N2CCNCC2)cn1; > 8.00

List reported pIC50 for each of these molecules:
1. Cc1c(Cc2ccc(C(=O)NO)cc2)c2ccccc2n1CC1CCN(CC2(F)CCNCC2)CC1
2. Nc1cnccc1NC(=O)c1ccc(CNC(=O)c2cccc3ccccc23)cc1
3. Nc1ccc(-c2ccccc2F)cc1NC(=O)c1ccc(N2CCNCC2)nc1
4. Nc1cc(F)ccc1NC(=O)c1ccc2c(cnn2Cc2cncc(F)c2)c1
5. CC(C)(F)CN1CCC(Cn2c(-c3cncnc3)c(Cc3ccc(C(=O)NO)cc3)c3ccccc32)CC1
6. COc1ccc(OC)c(CNc2ccc(C(=O)NO)cc2)c1
7. CC(C)[C@@H](C(=O)N1CCC(Nc2ncc(C(=O)NO)cn2)(c2ccccc2)CC1)c1ccccc1 (stereo in doubt)
8. Cc1c(Cc2ccc(C(=O)NO)cc2)c2ccccc2n1CC1CCN(Cc2ccccn2)CC1

5.53
6.56
> 8.00
> 6.00
5.24
6.22 to 6.35
7.70
5.83

List reported pIC50 for each of these molecules:
1. Cc1nc2ccccn2c1CCN1CCC[C@H]1c1ccc(/C=C/C(=O)NO)cc1
2. O=C(NO)c1ccc(Cn2ccc(C3(c4ccc(F)cc4F)CCCO3)cc2=O)cc1 (stereo not shown)
3. O=C(NO)c1ccc(Cn2ccc3c(-c4cccc(CN5CCOCC5)c4)ccnc32)cc1
4. Nc1ccc(-c2ccco2)cc1NC(=O)c1ccc(N2CCNCC2)s1
5. Nc1ccc(-c2cccs2)cc1NC(=O)c1ccc(CN2CCN(c3ccncc3)CC2)cc1

1. 8.52
2. 6.70 to 7.30
3. 6.37
4. > 8.00
5. > 6.00

* * *

What follows is literature data on IC50 for Histone deacetylase 1 (Homo sapiens).

O=C(NO)c1ccc2ncn(Cc3ccccc3)c2c1; > 10 µM
O=C(/C=C/c1ccccc1Oc1cccc(F)c1)NO; 1 to 10 µM

List reported IC50 for each of these molecules:
1. CCC(=O)CCCCC[C@H](NC(=O)C(=O)N(C)C)c1ncc(-c2cc3ccccc3nc2OC)o1
2. O=C(NO)c1ccc2ccn(CCOc3ccccc3F)c2c1
3. O=C(CCCCCCN(c1cnccn1)c1ccn2nccc2n1)NO
4. CC1(C)C(=O)N(Cc2ccc(-c3nnc(C(F)F)o3)cn2)C(=O)N1c1c(F)cccc1F
5. CN1CC2(C1)CN(c1c(N(Cc3ccc(-c4nnc(C(F)F)o4)cc3)c3ccccc3)c(=O)c1=O)C2
6. CC(C)(F)CN1CCC(Cn2c(-c3cc(F)cc(F)c3)c(Cc3ccc(C(=O)NO)cc3)c3ccccc32)CC1

["0.1 to 1 µM", "> 10 µM", "0.1 to 1 µM", "> 10 µM", "> 10 µM", "> 10 µM"]

* * *

pIC50: −log10 of the molar value.
What follows is literature data on pIC50 for Histone deacetylase 1 (Homo sapiens, UniProt Q13547).

CCC(=O)CCCCC[C@H](NC(=O)C1(N(C)C)CCCC1)c1ncc(-c2cc3ccccc3n(C)c2=O)o1; > 7.00
Cc1nc(C(=O)Nc2cc(-c3ccco3)ccc2N)sc1N1CCNCC1; > 8.00
CCC(=O)CCCCC[C@H](NC(=O)C(C)(C)N(C)C)c1ncc(-c2cc3ccccc3n(C)c2=O)o1; > 7.00
CC1(C)C(=O)N(Cc2ccc(-c3nnc(C(F)F)o3)cn2)C(=O)c2ccc(-c3ccccc3F)cc21; < 5.00
CC1(C)C(=O)N(Cc2ccc(-c3nnc(C(F)F)o3)cn2)C(=O)c2ccc(N3CCOCC3)cc21; < 5.00

List reported pIC50 for each of these compounds:
1. CCC(=O)CCCCC[C@H](NC(=O)c1ccns1)c1ncc(-c2cc3ccccc3nc2OC)o1
2. Nc1ccc(-c2ccoc2)cc1NC(=O)c1ccc(N2CCNCC2)s1

1: > 7.00; 2: > 8.00

List reported pIC50 for each of these compounds:
1. O=C(NO)c1ccc(NC(=O)c2ccc(C3(c4ccc(F)cc4)CCCO3)cc2)cc1 (stereo not drawn)
2. Cn1c(=O)n(Cc2ccc(-c3nnc(C(F)F)o3)cn2)c(=O)c2ccc(Br)cc21

1: < 6.70; 2: < 5.00
